# TARGET_UNDER_TEST: T1, soluble recombinant HLA-DR2 molecules (MHC class II HLA-DR2 protein) (human)
# T1 construct: Soluble, empty protein from Drosophila S2 cells, captured on plates by antibody LB3.1; also called MHC class II DR2 protein; recombinant HLA-DR2 protein
# PROCEDURE_DETAILS: competition ELISA on soluble HLA-DR2; competitor biotinylated Cop 1 (1.5 µM)
ASSAY_ENDPOINT: IC50

Before answering, review these 5 worked examples.
[
  {
    "BINDER": "EKAAYAAYKAAAAAA [synthetic peptide #87]",
    "IC50": "> 1000 µM"
  },
  {
    "BINDER": "EEAAYAYKKAAAAAA [synthetic peptide #112]",
    "IC50": "15 µM"
  },
  {
    "BINDER": "EKEAYAAYAAAAAAA [synthetic peptide #73]",
    "IC50": "> 1000 µM"
  },
  {
    "BINDER": "EEKAYAAAAAAAAAA [synthetic peptide #105]",
    "IC50": "> 1000 µM"
  },
  {
    "BINDER": "EKEAYAAYKAAAAAA [synthetic peptide #92]",
    "IC50": "> 1000 µM"
  }
]

Recorded IC50 of AAKAYEAYKAAAAAA [synthetic peptide #93] , please.
> 150 µM

Recorded IC50 of AAAEYKAYAAAAAAA [synthetic peptide #70] , please.
> 1000 µM

Recorded IC50 of EAAEYAAYKAAAAAA [synthetic peptide #89] , please.
> 1000 µM
